TEST SYSTEM: AR-Receptor (Homo sapiens, UniProt P10275)
Sequence (P10275 whole entry Q868H, form open): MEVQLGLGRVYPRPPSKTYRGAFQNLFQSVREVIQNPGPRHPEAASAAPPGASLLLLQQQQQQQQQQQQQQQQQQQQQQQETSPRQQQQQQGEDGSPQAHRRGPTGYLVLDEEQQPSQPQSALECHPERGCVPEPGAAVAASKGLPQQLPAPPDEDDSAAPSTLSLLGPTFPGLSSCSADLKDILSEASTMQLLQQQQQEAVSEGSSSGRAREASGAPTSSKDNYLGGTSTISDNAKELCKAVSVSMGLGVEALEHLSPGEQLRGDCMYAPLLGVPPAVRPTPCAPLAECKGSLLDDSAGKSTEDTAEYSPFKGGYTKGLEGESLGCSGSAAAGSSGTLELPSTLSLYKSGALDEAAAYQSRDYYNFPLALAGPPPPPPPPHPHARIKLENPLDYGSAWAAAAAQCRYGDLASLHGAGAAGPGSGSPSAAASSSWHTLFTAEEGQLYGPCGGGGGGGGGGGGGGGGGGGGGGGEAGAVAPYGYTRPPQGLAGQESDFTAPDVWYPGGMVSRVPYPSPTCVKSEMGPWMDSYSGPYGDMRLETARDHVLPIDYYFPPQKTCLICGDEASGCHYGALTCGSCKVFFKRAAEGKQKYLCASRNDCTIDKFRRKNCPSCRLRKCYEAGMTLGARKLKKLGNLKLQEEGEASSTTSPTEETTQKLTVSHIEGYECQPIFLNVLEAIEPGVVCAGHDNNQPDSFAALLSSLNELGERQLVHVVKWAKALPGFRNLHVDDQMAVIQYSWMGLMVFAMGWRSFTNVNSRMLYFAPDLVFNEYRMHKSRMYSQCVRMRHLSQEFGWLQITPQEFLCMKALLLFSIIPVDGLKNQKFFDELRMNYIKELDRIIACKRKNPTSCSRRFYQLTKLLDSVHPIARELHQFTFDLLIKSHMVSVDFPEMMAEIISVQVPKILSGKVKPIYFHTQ
MEASUREMENT DESCRIPTION: Functional Assay AR-Receptor (MDA-MB-453 cells, luciferase)
Format: cell-based
DETAILS: antagonist effect in the presence of DHT 1 nM, 24 h, luciferase luminescence, read-out: AR antag KB
Recorded Kb values for a group of molecules are listed next.

Before answering, review these 10 worked examples.
COC(=O)C1=C(C)NC(C=O)=C(C(=O)OC)C1c1csc2c(C#N)cccc12 (stereo not shown) [Example C119]	100 to 1000 nM
CC(=O)C1=C(C)NC(C2CC2)=C(C(=O)OCC2CC2)C1c1csc2cc(C#N)ccc12 (stereo not shown) [Example C122]	< 100 nM
COC(=O)C1=C(C2CC2)NC(C)=C(C(C)=O)C1c1csc2ncccc12 (stereo not shown) [Example J23]	≥ 1000 nM
CC(=O)C1=C(C)NC(C)=C(C(=O)OCc2ccncc2)C1c1csc2c(Br)cccc12 (stereo not shown) [Example J33]	100 to 1000 nM
CC(=O)C1=C(C)NC(C)=C(C(=O)OCc2ccccc2)C1c1csc2ccc(F)cc12 (stereo not shown) [Example C41]	100 to 1000 nM
CC(=O)C1=C(C)NC(C)=C(C(=O)OCc2ccncc2)C1c1csc2ccc(F)cc12 (stereo not shown) [Example C46]	100 to 1000 nM
CC(=O)C1=C(C)NC(C)=C(C(=O)OCC2CCCCC2)C1c1csc2ccccc12 (stereo not shown) [Example B21]	100 to 1000 nM
CC(=O)C1=C(C)NC(C)=C(C(=O)OCc2ccccc2)C1c1csc2ccc(Cl)cc12 (stereo not shown) [Example C42]	< 100 nM
COC(=O)C1=C(C)NC(N)=C(C(=O)OCC(C)(C)C)C1c1csc2c(C#N)cccc12 (stereo not shown) [Example D43]	≥ 1000 nM
CC(=O)C1=C(C)NC(C)=C(C(=O)OCc2ccc(-c3cccnc3)cc2)C1c1csc2ncccc12 (stereo not shown) [Example L2]	100 to 1000 nM

What the record says about CC(=O)C1=C(C)NC(C)=C(C(=O)OCc2cccnc2)C1c1csc2ccc(Cl)cc12 (stereo not shown) [Example C60] : Kb is 100 to 1000 nM

What the record says about CC(=O)C1=C(C)NC(C)=C(C(=O)OCC2CCOCC2)C1c1csc2ccc(Cl)cc12 (stereo not shown) [Example C43] : Kb is < 100 nM

What the record says about CC(=O)C1=C(C)NC(N)=C(C(=O)OCC2CCCCC2)C1c1csc2c(C#N)cccc12 (stereo not shown) [Example D30] : Kb is 100 to 1000 nM

What the record says about CC1=C(C#N)C(c2csc3c(C#N)cccc23)C(C(=O)OCC2CC2)=C(N)N1 (stereo not shown) [Example D24] : Kb is 100 to 1000 nM

What the record says about COC(=O)C1=C(C2CC2)NC(C2CC2)=C(C#N)C1c1csc2c(C#N)cccc12 (stereo not shown) [Example C107] : Kb is ≥ 1000 nM

What the record says about CC(=O)C1=C(C)NC(C2CC2)=C(C(=O)OCc2ccncc2)C1c1csc2ccccc12 (stereo not shown) [Example J32] : Kb is 100 to 1000 nM
